# folding stability dG listing for each entry below
B1: EEHEE_rd3_1049 (parent)
chain: TTVKLGDIKVTFDNPEKAKKYAQKLAKIYQLTVHVHGDTIHVK

Variants of: B1
experiment: folding stability dG (cDNA display proteolysis); higher = more stable
run-parameters: PBS, room temperature
Respond numerically; units are kcal/mol and should not be typed.

# folding stability dG lookup, item H36K
1.96

# folding stability dG lookup, item K19A
1.9
